# PROTOCOL: self-splicing fitness, log relative to wild type (ln ratio); higher = more splicing; Tetrahymena group I intron in knt gene, E. coli kanamycin selection, DiMSum; sequences stand for … in CUCUCU…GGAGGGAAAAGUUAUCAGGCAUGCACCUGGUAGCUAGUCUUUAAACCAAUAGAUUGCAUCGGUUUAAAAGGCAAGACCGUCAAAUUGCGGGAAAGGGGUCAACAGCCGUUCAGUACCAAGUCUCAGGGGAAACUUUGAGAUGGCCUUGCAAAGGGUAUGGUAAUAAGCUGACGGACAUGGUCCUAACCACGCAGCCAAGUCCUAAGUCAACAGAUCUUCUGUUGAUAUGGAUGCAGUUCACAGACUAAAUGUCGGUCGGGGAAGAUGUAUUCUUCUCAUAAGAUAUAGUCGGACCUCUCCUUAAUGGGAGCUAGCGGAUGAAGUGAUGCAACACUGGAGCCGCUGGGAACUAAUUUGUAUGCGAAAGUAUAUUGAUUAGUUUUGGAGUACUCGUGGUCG;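 note: selection with 25 µg/mL kanamycin versus none on LB agar overnight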
# RECORDED_CONDITIONS: 37 °C
ENDPOINT_LABEL: self-splicing fitness (ln)

Past entries and their recorded results:
[[record]]
sequence_record = "UGUCAGCAAUAUUACGUGAG"
observed_value = 0.251

[[record]]
sequence_record = "UGACAGCAAUAUUACGUCGA"
observed_value = -0.143


Entry under test: AACCAGCAAUAUUACGUUCU . Its self-splicing fitness (ln) was -0.678

Recorded self-splicing fitness (ln) (sequence UAUUAGCAAUAUUACGAUAA ): 0.628

The reported value for AGCCAGCAAUAUUACGUAUG in terms of self-splicing fitness (ln) is -3.2

Query AGGGAGCAAUAUUACGAUCU yields self-splicing fitness (ln) of -1.77

So, CACAAGCAAUAUUACGUGUA ? Its self-splicing fitness (ln) was -1.78

For CUCAAGCAAUAUUACGGAAG the sequence record lists self-splicing fitness (ln) as -0.365

Entry CCAGAGCAAUAUUACGAGAU , self-splicing fitness (ln) reported as -3.15

Reported self-splicing fitness (ln) ( CCUCAGCAAUAUUACGCGUU ) = -2.96

// self-splicing fitness (ln) value for UCGAAGCAAUAUUACGGUGG : -1.55

For reference, reported self-splicing fitness (ln) for AGAUAGCAAUAUUACGGCCG stands at -0.128

###

# PROTOCOL: self-splicing fitness, log relative to wild type (ln ratio); higher = more splicing; Tetrahymena group I intron in knt gene, E. coli kanamycin selection, DiMSum; sequences stand for … in CUCUCU…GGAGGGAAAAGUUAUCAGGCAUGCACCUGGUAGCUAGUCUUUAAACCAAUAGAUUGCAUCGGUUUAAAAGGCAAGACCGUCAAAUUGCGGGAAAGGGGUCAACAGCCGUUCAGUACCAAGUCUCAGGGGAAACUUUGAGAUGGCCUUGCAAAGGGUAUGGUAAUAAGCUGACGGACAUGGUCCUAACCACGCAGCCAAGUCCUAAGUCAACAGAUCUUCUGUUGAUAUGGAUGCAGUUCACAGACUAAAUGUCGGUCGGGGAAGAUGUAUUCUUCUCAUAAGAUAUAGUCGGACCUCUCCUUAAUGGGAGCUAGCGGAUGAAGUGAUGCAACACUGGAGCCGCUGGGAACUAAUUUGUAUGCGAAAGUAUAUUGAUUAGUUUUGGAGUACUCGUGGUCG
# RECORDED_CONDITIONS: 30 °C
Lab note: compare self-splicing fitness (ln) against -3. Equal or greater, write Criterion met. Smaller, write Criterion not met.

[[record]]
sequence_record = "AUACAGCAAUAUUACGGCAU"
discrete_label = "Criterion met"

[[record]]
sequence_record = "GCCCAGCAAUAUUACGGAAC"
discrete_label = "Criterion met"


Decide: is the reported value of self-splicing fitness (ln) for GAAAAGCAAUAUUACGUAAU equal to or greater than -3?
Criterion met
